Experimental System: progesterone receptor-B (Homo sapiens)
Sequence (P06401 whole entry): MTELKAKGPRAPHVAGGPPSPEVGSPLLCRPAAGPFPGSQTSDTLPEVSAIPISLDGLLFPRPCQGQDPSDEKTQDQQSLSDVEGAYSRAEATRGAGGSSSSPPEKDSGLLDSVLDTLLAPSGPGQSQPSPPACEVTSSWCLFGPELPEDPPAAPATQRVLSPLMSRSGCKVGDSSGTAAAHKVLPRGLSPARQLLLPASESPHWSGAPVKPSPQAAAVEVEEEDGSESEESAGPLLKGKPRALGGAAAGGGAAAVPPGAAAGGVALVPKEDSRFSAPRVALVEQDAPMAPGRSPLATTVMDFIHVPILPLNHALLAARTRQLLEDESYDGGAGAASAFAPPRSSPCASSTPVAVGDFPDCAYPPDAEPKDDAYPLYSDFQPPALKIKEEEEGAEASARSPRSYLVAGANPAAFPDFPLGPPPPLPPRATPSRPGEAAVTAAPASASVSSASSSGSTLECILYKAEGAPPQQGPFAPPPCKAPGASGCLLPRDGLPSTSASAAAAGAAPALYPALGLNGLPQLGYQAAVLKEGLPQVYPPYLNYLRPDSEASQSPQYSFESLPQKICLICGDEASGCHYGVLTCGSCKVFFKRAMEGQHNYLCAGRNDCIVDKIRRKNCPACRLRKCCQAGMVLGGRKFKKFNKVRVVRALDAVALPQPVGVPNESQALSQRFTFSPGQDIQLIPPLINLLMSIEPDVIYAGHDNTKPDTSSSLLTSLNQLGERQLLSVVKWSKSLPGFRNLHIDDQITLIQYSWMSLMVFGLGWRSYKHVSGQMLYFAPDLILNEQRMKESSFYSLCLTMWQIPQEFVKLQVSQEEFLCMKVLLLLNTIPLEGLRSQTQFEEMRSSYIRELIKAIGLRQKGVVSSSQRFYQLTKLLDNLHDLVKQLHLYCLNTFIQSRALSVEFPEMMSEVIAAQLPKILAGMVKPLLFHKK
Method: Progesterone receptor-B transactivation, antagonistic mode (inhibition of luciferase transactivation by inducer, CHO cells)
Type: cell-based
Condition Label: CHO; intrinsic antagonistic activity, percentage of effect of standard antagonist (6β,11β,17β)-11-[4-(dimethylamino)phenyl]-4′,5′-dihydro-6-methylspiro[estra-4,9-diene-17,2′(3′H)-furan]-3-one; 0.1 nM inducer; read-out: PRBant Eff (%)
Quantity Name: Emax (%)

CC[C@@H]1C[C@H]2[C@@H]3CCC4=CC(=O)CCC4=C3[C@@H](c3ccc(-c4ccc(OC)nc4)cc3)C[C@]2(C)[C@H]1C(=O)C1CC1 : 51.7
CC12CC(c3ccc(-c4cccnc4)cc3)C3=C4CCC(=O)C=C4CCC3C1CCC21CCCC1=O (stereo not shown) : 70.8
C[C@]12C[C@H](c3ccc(-c4cccnc4)cc3)C3=C4CCC(=O)C=C4CC[C@H]3[C@@H]1CC[C@]2(C)C(=O)C1CC1 : 58
C[C@]12C[C@H](c3ccc(-c4cccnc4)cc3)C3=C4CCC(=O)C=C4CC[C@H]3[C@@H]1C[C@@H](/C=C/c1ccccc1)[C@@H]2C(=O)C1CC1 : 34.5

1. C[C@]12C[C@H](c3ccc(-c4cccnc4)cc3)C3=C4CCC(=O)C=C4CC[C@H]3[C@@H]1C[C@H]1C[C@]12C(=O)C1CC1
2. C[C@@H]1C[C@H]2[C@@H]3CCC4=CC(=O)CCC4=C3[C@@H](c3ccc(-c4cnc5ccccc5c4)cc3)C[C@]2(C)[C@H]1C(=O)C1CC1
Given the listed records, identify the one among 1 and 2 with higher Emax. // return label of chosen record 1
